test.target: β5 subunit of the human constitutive 20S proteasome (Homo sapiens, UniProt P20618+P28074)
Construct: human erythrocyte 20S; purchased R&D Systems, Inc; host or cells: human erythrocytes (native, purified from tissue)
experimental.details: In vitro β5 proteasome inhibitory activity and kinetic constants (Suc-LLVY-AMC, chymotrypsin-like activity)
Assay type: biochemical
protocol.conditions: from fit kobs = k2[I]/(Ki + [I])
property.name: log10 Ki (log10 of the value in nM)

[[record]]
compound = "CCCCCCCCCC(=O)N[C@@H](Cc1ccc(-c2ccccc2)cc1)C(=O)N[C@H]1/C=C/CNC(=O)/C=C/[C@H](C(C)C)NC1=O [analogue 14]"
measured_number = 1.63

[[record]]
compound = "CCCCCCCCCC(=O)N[C@@H](Cc1ccccc1)C(=O)N[C@H]1CCCNC(=O)/C=C/[C@H](C(C)C)NC1=O [analogue 9]"
measured_number = 2.74

[[record]]
compound = "CCCCCCCCCC(=O)N[C@@H](Cc1ccccc1)C(=O)N[C@H]1CCCCCNC(=O)/C=C/[C@H](C(C)C)NC1=O [analogue 12]"
measured_number = 3.96

[[record]]
compound = "CCCCCCCCCC(=O)N[C@@H](Cc1ccccc1)C(=O)N[C@H]1C/C=C/CCNC(=O)/C=C/[C@H](C(C)C)NC1=O [analogue 11]"
measured_number = 3.09

[[record]]
compound = "CCCCCCCCCC(=O)N[C@@H](Cc1ccccc1)C(=O)N[C@H]1/C=C/CNC(=O)/C=C/[C@H](C(C)C)NC1=O [analogue 8]"
measured_number = 2.64

[[record]]
compound = "CCCCCCCCCC(=O)N[C@@H](Cc1ccccc1)C(=O)N[C@H]1CC/C=C/CNC(=O)/C=C/[C@H](C(C)C)NC1=O [analogue 10]"
measured_number = 2.72


All values here come from paper PMC5642145.
